System: gramicidin D channels in DC22:1PC lipid vesicles (bilayer-modifying potency)
Assay: initial Tl+ fluorescence quench rate relative to no-drug control (NormRate, gramicidin monomer-dimer shift) (ratio (fold of control)); higher = stronger bilayer-modifying effect (equilibrium shifted toward conducting dimers), active = 1.5 or more
Settings: 10 µM; lipid concentration 50 µM; temperature: 25 °C
PROPERTY MEASURED: initial Tl+ fluorescence quench rate
Give the figure by itself; no unit, no explanation.

Worked examples follow.
CC(C)[C@H](NC(=O)Cc1cccc2ccccc12)C(=O)Nc1cccc(C#N)c1 | 1.74
COc1cc2ncnc(NC3CCN(Cc4ccccc4)CC3)c2cc1OC | 1.04

Look up initial Tl+ fluorescence quench rate with gramicidin D channels in DC22:1PC lipid vesicles (bilayer-modifying potency) for this compound: CO[C@@H](C(=O)N1Cc2[nH]nc(NC(=O)c3ccc(N4CCN(C)CC4)cc3)c2C1)c1ccccc1
1.2

Same thing, different compound: CC(C)n1ncc2c(C(=O)NC[C@H](c3cccs3)N3CCOCC3)cc(-c3ccccc3)nc21
2.74

Same thing, different compound: CNC(=O)CNc1nc(-c2ccccn2)nc2scc(-c3ccccc3)c12
5.21

Same thing, different compound: COc1ccc(CCN2CCC(NCc3cccc(N(C)C)c3)CC2)cc1
1.07

Same thing, different compound: CC[C@H](Sc1nc2ccccc2o1)C(=O)Nc1nnc(C)s1
1.3

Same thing, different compound: CC(=O)N1CCc2cc3nc(C)cc(C)c3cc21
1.09

Same thing, different compound: COc1ccc(-c2cnc3ccc(NCc4ccc(S(N)(=O)=O)cc4)nn23)cn1
1.24

Same thing, different compound: CC(C)(C)C(=O)N(CCCCCCN1C[C@H](O)[C@@H](O)[C@H](O)[C@H]1CO)C1CCCCCC1
1.15

---

Test system: gramicidin D channels in DC22:1PC lipid vesicles (bilayer-modifying potency)
Test: initial Tl+ fluorescence quench rate relative to no-drug control (NormRate, gramicidin monomer-dimer shift) (ratio (fold of control)); higher = stronger bilayer-modifying effect (equilibrium shifted toward conducting dimers), active = 1.5 or more
Details: 10 µM; lipid concentration 50 µM; temperature: 25 °C
Reported values of initial Tl+ fluorescence quench rate for individual entries
Give the figure by itself; no unit, no explanation.

CC(C)(C)c1ccc(N[C@@H]2CCCC[C@H]2NC(=O)c2ccco2)cc1 | 1.36

// query initial Tl+ fluorescence quench rate value for entry CS(=O)(=O)N1CCC(CCn2nc(Cc3cccc4ccccc34)c3c(N)ncnc32)CC1
1.95

Same thing, different molecule: CCOC(=O)c1cc(-c2csc(Nc3c(C)cc(C)cc3C)n2)on1
1.15

Same thing, different molecule: CCc1ccc([C@@H](NCc2nc(N)nc(N(C)C)n2)C(C)C)cc1
1.08

Same thing, different molecule: CS(=O)(=O)c1ccccc1C(=O)N(Cc1ccccc1)c1ccccc1
1.09

Same thing, different molecule: O=C(NC1CC1)c1ccc(N2CCOc3ccc(Cl)cc32)s1
3.52

Same thing, different molecule: COC[C@H](C)NC(=O)CSc1ncnc2sc(-c3ccccc3)cc12
1.33

Same thing, different molecule: CCN(CC)S(=O)(=O)c1ccc(Cl)c(C(=O)Nc2ccc3nc(C)sc3c2)c1
2.06

Same thing, different molecule: CC(C)(C)[C@H]1CC[C@H](CC2=C(O)C(=O)c3ccccc3C2=O)CC1
1.31
